# Organism: Rattus norvegicus
# test_summary: Difference in systolic blood pressure observed prior to the first application and 2 hr after the fifth application to spontaneously hypertensive rats(SHR)
# Format: functional, Artery
measured_attribute: Delta blood pressure (mmHg)
Only the number, expressed in mmHg, is required.

compound	measured_attribute	experimental_result
C=C[C@@]1(C)CC(=O)[C@]2(O)C3(C)[C@@H](O)CCC(C)(C)[C@@H]3C(O)C(OS(=O)(=O)c3ccc(C)cc3)[C@@]2(C)O1 (stereo partly drawn)	Delta blood pressure	-27.3

**Q:** Tell me the measured Delta blood pressure of CC(=O)OC1C(O)[C@H]2C(C)(C)CC[C@H](O)C2(C)[C@@]2(O)C(=O)C[C@](C)(C3CO3)O[C@]12C (stereo partly drawn) , please.
**A:** -22.67

**Q:** Tell me the measured Delta blood pressure of C=C[C@@]1(C)CC(=O)[C@]2(O)C3(C)[C@@H](O[Si](C)(C)C)CCC(C)(C)[C@@H]3C(O)C(OC(C)=O)[C@@]2(C)O1 (stereo partly drawn) , please.
**A:** 0

**Q:** Tell me the measured Delta blood pressure of C=C[C@@]1(C)CC(=O)[C@]2(O)C3(C)[C@@H](OC(=O)C(C)(C)C)CCC(C)(C)[C@@H]3C(O)C(OC(=O)C(C)(C)C)[C@@]2(C)O1 (stereo partly drawn) , please.
**A:** 0
